The measurements presented in this section are drawn from ChEMBL document CHEMBL1128350.

Species: Homo sapiens
Experiment: Inhibition (at 10 uM) of thrombin-induced platelet aggregation
Type: functional
measurement-kind: inhibition at 10 µM

# molecule, inhibition at 10 µM
measured = [
    ("COC(=O)[C@H](CC(=O)O)NC(=O)C1CCCN(C(=O)[C@H](CCCCN)NC(=O)OC(C)(C)C)C1 (stereo not given in full)", "32%"),
    ("CC(C)(C)OC(=O)N[C@@H](CCCCN)C(=O)N1CCC[C@H](C(=O)NCCC(=O)O)C1", "87%"),
    ("O=C(O)CCNC(=O)C1CCCN(C(=O)CCC2CCNCC2)C1 (stereo not given)", "89%"),
    ("CC(C)(C)OC(=O)N[C@H](CCCCN)C(=O)N1CCCC(C(=O)NCCCC(=O)O)C1 (stereo not given in full)", "0%"),
]

Given CC(=O)N[C@H](CCCCN)C(=O)N1CCCC(C(=O)NCCC(=O)O)C1 (stereo not given in full) , state its recorded inhibition at 10 µM.
30%
